# koff per record follows
Biological target: T1, human transferrin receptor (recombinant, for surface plasmon resonance) (human, UniProt P02786 89-760)
T1 construct: also called huTfR; human transferrin receptor-biotinylated
T1 sequence (P02786 89-760 limits assumed): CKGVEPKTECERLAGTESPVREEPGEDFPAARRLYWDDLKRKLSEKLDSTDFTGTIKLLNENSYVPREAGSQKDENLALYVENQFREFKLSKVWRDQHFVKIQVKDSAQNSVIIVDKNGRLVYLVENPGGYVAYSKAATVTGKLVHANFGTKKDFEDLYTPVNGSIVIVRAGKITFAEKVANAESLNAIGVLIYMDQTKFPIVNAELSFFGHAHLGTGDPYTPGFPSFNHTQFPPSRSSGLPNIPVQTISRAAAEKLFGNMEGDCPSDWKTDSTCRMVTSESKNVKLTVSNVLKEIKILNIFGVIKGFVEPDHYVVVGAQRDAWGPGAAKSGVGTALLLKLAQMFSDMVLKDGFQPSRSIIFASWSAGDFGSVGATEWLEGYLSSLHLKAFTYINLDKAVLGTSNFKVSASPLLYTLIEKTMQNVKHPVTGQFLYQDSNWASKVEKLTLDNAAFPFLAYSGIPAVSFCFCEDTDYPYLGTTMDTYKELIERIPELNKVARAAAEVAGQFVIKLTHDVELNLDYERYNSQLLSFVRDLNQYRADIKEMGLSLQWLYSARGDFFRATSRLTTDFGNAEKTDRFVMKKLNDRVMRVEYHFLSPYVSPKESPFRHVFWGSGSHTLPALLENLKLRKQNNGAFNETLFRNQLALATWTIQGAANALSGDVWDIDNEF
Assay: SPR 25C
A number alone suffices; assume s⁻¹.

binder="2/99 VH11/VL17 (antibody, V domains shown) VH: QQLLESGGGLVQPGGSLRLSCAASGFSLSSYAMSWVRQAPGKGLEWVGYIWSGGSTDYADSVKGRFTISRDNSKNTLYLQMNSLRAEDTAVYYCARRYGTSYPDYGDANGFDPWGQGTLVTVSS VL: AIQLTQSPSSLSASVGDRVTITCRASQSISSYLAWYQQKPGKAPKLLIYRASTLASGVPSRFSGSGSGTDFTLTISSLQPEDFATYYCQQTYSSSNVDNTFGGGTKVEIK" test_result=0.00755
binder="2/99 VH8/VL12 (antibody, V domains shown) VH: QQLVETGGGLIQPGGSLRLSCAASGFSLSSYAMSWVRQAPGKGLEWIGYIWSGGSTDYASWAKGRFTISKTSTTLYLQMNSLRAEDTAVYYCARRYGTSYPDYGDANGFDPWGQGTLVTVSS VL: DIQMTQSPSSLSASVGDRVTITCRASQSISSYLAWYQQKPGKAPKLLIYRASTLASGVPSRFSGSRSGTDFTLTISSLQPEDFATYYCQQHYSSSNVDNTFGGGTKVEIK" test_result=0.00672

Qu. Can you share its koff? I mean this binder: 2/99 VH23-DANG/VL5 (antibody, V domains shown) VH: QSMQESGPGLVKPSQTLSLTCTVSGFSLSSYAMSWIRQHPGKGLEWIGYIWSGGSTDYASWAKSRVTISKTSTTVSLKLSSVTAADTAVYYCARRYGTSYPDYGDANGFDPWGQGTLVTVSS VL: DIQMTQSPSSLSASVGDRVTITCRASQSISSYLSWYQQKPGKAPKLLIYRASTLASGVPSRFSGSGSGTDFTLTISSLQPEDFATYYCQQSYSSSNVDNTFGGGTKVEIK
Ans. 0.00088

From: patent US20180291110A1
